# assay text: Hemolytic activity in rabbit red blood cells assessed as hemoglobin release
# Type: ADME, cell-based, Oryctolagus cuniculus, Erythrocyte
property: HC50

[[record]]
substance = "H-GFKDLLKGAAKALVKTVLF-NH2 [Ascaphin-8]"
reported_measurement = "> 100 µM"

